- System: RARg:RXRa (NR concentration 270 nM, RXRa partner concentration 90 nM)
- assay-remarks: PBM binding z-score (relative to random genomic background probes); higher = stronger binding; sequences stand for … in GC…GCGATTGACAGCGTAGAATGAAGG
quantity-measured: PBM binding z-score
I only need the number, thanks.

For orientation, consider the following solved cases.
CGTGCAAGGTCAAAGGTCAGTGAAGAGATGACGG : 8.84
CCTAGCAGGCCAATCTGGGTGACTCAAGGCTTGA : -0.294
AGTCAAACTTCATCTAGGTAACGTAAGATATGCT : -0.19

Requested read-out: PBM binding z-score. Entry: "TCTTGTAGATCATCAGGAGGTTAAGAAAGATCGA"
0.857

Requested read-out: PBM binding z-score. Entry: "ATACCAAGGTGAACGTGAGGTCGTTGATACTAAC"
3.63
